System: P30-OHKUBO;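 also: ALL cell lines in 384-well plates, five doses spanning 10,000-fold, each plate scaled between vehicle and 100 µmol/L benzalkonium chloride controls, sDSS an adapted area-under-curve metric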
TEST_DETAILS: selective drug sensitivity score (sDSS, relative to normal bone marrow) (sDSS (score)); higher = more potent and effective on the cell line relative to normal bone marrow cells
CONDITION_SUMMARY: 72 h
Response key: Fulfilled means selective drug sensitivity score >= 1; Not fulfilled means selective drug sensitivity score < 1.

Look over these answered cases.
COMPOUND	ASSIGNED_LABEL
Cc1cc(C(C)Nc2ccccc2)c2nc(N3CCOCC3)cc(=O)n2c1 (stereo unspecified) [TGX-221] (top concentration 10000 nM)	Fulfilled
Oc1ncnc2[nH]ncc12 [Allopurinol] (top concentration 10000 nM)	Not fulfilled
COc1cccc2c1C(=O)c1c(O)c3c(c(O)c1C2=O)C[C@@](O)(C(=O)CO)C[C@@H]3O[C@H]1C[C@H](N)[C@H](O)[C@H](C)O1 [Doxorubicin] (top concentration 1000 nM)	Fulfilled
CCN(CC)CCN(Cc1ccc(-c2ccc(C(F)(F)F)cc2)cc1)C(=O)Cn1c(SCc2ccc(F)cc2)nc(=O)c2c1CCC2 [Darapladib] (top concentration 1000 nM)	Not fulfilled
C[C@]12CC[C@H](O)CC1=CC[C@@H]1[C@@H]2CC[C@]2(C)C(c3cccnc3)=CC[C@@H]12 [Abiraterone] (top concentration 5000 nM)	Fulfilled

Can Cn1ncc(Cl)c1-c1cc(C(=O)N[C@H](CN)Cc2cccc(F)c2)sc1Cl [Afuresertib] (top concentration 1000 nM) be said to have selective drug sensitivity score at or above 1?
Fulfilled
